# protocol-notes: Pharmacokinetic study in vivo (plasma, LC–MS, noncompartmental)
# condition-summary: both sexes, Sprague-Dawley, rat, po, 5 mg/kg, rats, oral 5 mg/kg, read-out: Tmax
endpoint: Tmax (h)
Provide only the numeric value, understood in h.

(Q) Any idea what its Tmax is? The compound is O=C(/C=C/c1ccc(O)c(O)c1/C=C/c1ccc(O)c(O)c1)O[C@H](Cc1ccc(O)c(O)c1)C(=O)O [Sal A, Salvianolic acid A]
(A) 1
